Source listed as patent US20250059174A1.

biological target: Recombinant human c-KIT kinase (Homo sapiens (Human), UniProt P10721); assay: c-KIT kinase chemiluminescence assay (ADP-Glo); conditions: ATP 50 μM
Sequence (P10721 26-976): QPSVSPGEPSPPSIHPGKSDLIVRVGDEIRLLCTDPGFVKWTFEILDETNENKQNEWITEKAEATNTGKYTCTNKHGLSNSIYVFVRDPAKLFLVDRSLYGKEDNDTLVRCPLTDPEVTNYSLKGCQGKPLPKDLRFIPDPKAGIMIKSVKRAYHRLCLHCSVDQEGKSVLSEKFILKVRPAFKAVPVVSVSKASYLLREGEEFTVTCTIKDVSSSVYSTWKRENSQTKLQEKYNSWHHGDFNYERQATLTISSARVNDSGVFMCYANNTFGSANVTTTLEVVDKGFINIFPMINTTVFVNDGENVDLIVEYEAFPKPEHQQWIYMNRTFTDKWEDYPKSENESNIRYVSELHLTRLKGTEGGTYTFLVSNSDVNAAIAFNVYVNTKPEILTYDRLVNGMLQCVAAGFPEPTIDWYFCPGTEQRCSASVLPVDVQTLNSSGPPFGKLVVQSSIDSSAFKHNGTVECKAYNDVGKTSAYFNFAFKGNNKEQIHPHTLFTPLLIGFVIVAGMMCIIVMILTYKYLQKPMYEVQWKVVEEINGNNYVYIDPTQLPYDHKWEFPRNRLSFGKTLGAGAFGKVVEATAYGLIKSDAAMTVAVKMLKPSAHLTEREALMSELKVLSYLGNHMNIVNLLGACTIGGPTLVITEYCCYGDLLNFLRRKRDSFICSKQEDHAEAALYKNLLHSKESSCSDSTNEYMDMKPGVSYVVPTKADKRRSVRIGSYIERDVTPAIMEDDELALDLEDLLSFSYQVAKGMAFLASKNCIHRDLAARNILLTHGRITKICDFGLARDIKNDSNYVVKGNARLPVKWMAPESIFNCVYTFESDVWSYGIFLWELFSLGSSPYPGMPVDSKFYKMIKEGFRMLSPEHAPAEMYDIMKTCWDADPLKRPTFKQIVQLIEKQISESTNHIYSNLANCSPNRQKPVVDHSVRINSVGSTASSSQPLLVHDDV
pIC50: −log10 of the molar value.
Reported pIC50 is given for each of the following compounds.

Cc1ccc(-c2noc([C@H]3C[C@@H]3F)n2)cc1NC(=O)c1cnn2cc(Cl)c(Br)cc12 : < 6.00
Cc1ccc(-c2noc([C@H]3C[C@@H]3F)n2)cc1NC(=O)c1cnc(-c2ccc3[nH]c(=O)ccc3c2)o1 : > 7.00
Cc1cc(F)c(-c2noc([C@H]3C[C@@H](OC(F)(F)F)C3)n2)cc1NC(=O)c1cnn2ccc(N3CC4(COC4)C3)cc12 : > 7.00
Cc1ccc(-c2ncc(OC(F)(F)F)cn2)cc1NC(=O)c1cnc(-c2ccc3c(c2)CC(=O)N3)o1 : 6.00 to 7.00
[2H]C([2H])([2H])n1nnc(-c2cnc(C)c(NC(=O)c3cnn4ccc(N5CC6(C5)CC(O)(C(F)F)C6)cc34)c2)n1 : 6.00 to 7.00
Cc1ccc(-c2noc([C@H]3C[C@@H]3F)n2)cc1NC(=O)c1cnc(-c2ccc3oc(=O)[nH]c3c2)o1 : < 6.00

Continue with the compound presented below.
Which pIC50 is reported for this compound? `Cc1ncc(-c2noc([C@H]3C[C@@H]3F)n2)cc1NC(=O)c1cnn2ccc(N3CC4(COC4)C3)cc12`
6.00 to 7.00
